pKi by entry:
- Tested System: human GABAA α5β2γ1 receptor (Homo sapiens (Human), UniProt P31644+Q8N1C3)
- Protocol Text: Radioligand binding assay for γ1-containing GABAA subtypes, [3H]RO7239181 competition (α5β2γ1)
pKi: −log10 of the molar value.
Measure: pKi

> print(dat)
                                   compound  measure  quantitative.readout
1  C[C@@H]1N=C(c2c(F)cccc2F)c2c(ccc(Cl)c2Cl)-n2nc(C#N)nc21      pKi                  8.78
2  C[C@H](O)CNC(=O)c1nc2n(n1)-c1ccc(C(F)(F)F)c(Cl)c1C(c1c(F)cccc1F)=N[C@H]2C      pKi                  8.51
3  C[C@@H]1N=C(c2c(F)cccc2F)c2c(ccc(C(F)(F)F)c2Cl)-n2nc(NC(=O)N3C4COCC3C4)nc21 (single isomer, unassigned)      pKi                  8.16
4  COCc1nc2n(n1)-c1ccc(Cl)c(Cl)c1C(c1c(F)cccc1F)=N[C@H]2C      pKi                  8.97

----------
- Tested System: α2β2γ1 GABAA receptor subtype (Homo sapiens (Human), UniProt P47869+Q8N1C3)
- Protocol Text: Two-electrode voltage clamp electrophysiology in Xenopus oocytes expressing GABAA receptors (modulation of GABA EC20 current)
- Type: cell-based
- Measurement Context: Xenopus oocytes expressing α2β2γ1; compound at approx. 30-fold its Ki α2β2γ1; GABA EC20 current
Listed here: items and their measured Fold increase h-GABA-A α2β2γ1 oocyte @ 30-fold Ki.
Measure: Fold increase h-GABA-A α2β2γ1 oocyte @ 30-fold Ki

> print(dat)
                            smiles.notation  quantitative.readout
1  CC1CN(C(=O)c2nc3n(n2)-c2ccc(C(F)(F)F)c(Cl)c2C(c2ncccc2F)=N[C@H]3C)C1                  2.18
2  C[C@@H]1N=C(c2c(F)cccc2F)c2c(ccc(Cl)c2Cl)-n2nc(C(=O)N3CC4(CCO4)C3)nc21                  1.76
3  C[C@@H]1N=C(c2c(F)cccc2F)c2c(ccc(Cl)c2Cl)-n2nc(N3CC(O)C3)nc21                  1.58
4  C[C@@H]1N=C(c2c(F)cccc2F)c2c(ccc(Cl)c2Cl)-n2nc(C(=O)N3CC4(COC4)C3)nc21                  1.75
5  Cc1cnc2n1-c1ccc(Cl)c(Cl)c1C(c1c(F)cccc1F)=N[C@H]2C                  1.35
6  C[C@@H]1N=C(c2c(F)cccc2F)c2c(ccc(C(F)(F)F)c2Cl)-n2nc(C(=O)NN(C)C)nc21                  1.92
7  COC1CN(C(=O)c2nc3n(n2)-c2ccc(Cl)c(Cl)c2C(c2c(F)cccc2F)=N[C@H]3C)C1                  1.52

----------
- Tested System: α2β2γ1 GABAA receptor subtype (Homo sapiens (Human), UniProt P47869+Q8N1C3)
- Protocol Text: Two-electrode voltage clamp electrophysiology in Xenopus oocytes expressing GABAA receptors (modulation of GABA EC20 current)
- Assay type: cell-based
- Measurement Context: % modulation of GABA EC20 = 100*(Fold increase-1); α2β2γ1 oocytes; compound at approx. 30-fold Ki
Measure: Efficacy (GABA)% (%)

> print(dat)
                                    molecule  quantitative.readout
 1  Cc1cn2c(n1)[C@H](C)N=C(c1c(F)cccc1F)c1c-2ccc(C(F)(F)F)c1Cl [Example 148]                    73
 2  C[C@@H]1N=C(c2c(F)cccc2F)c2c(ccc(Cl)c2Cl)-n2nc(C(=O)NCC#N)nc21 [Example 56]                    72
 3  CN(C)C(=O)c1nc2n(n1)-c1ccc(Cl)c(Cl)c1C(c1c(F)cccc1F)=NC2 [Example 9]                   123
 4  C[C@@H]1N=C(c2ncccc2F)c2c(ccc(C(F)(F)F)c2Cl)-n2nc(C(=O)N3CC(OC(F)F)C3)nc21 [Example 140]                   121
 5  COC1CN(C(=O)c2nc3n(n2)-c2ccc(Cl)c(Cl)c2C(c2c(F)cccc2F)=NC3)C1 [Example 11]                    62
 6  C[C@@H]1N=C(c2c(F)cccc2F)c2c(ccc(Cl)c2Cl)-n2nc(C(=O)N3CC(O)C3)nc21 [Example 25]                    63
 7  C[C@H](O)CNC(=O)c1cn2c(n1)[C@H](C)N=C(c1ncccc1F)c1c-2ccc(C(F)(F)F)c1Cl [Example 155]                   193
 8  C[C@@H]1N=C(c2ncccc2F)c2c(ccc(C(F)(F)F)c2Cl)-n2cc(C(=O)NC[C@@H](C)O)nc21 [Example 157]                   191
 9  C[C@@H]1N=C(c2c(F)cccc2F)c2c(ccc(Cl)c2Cl)-n2cc(C#N)nc21 [Example 74]                    75
10  C[C@@H]1N=C(c2c(F)cccc2F)c2c(ccc(Cl)c2Cl)-n2nc(C3COC3)nc21 [Example 81]                    53
11  C[C@@H]1N=C(c2ncccc2F)c2c(ccc(C(F)(F)F)c2Cl)-n2nc(C(=O)N3CCS(=O)(=O)CC3)nc21 [Example 124]                   145
12  COc1nc2n(n1)-c1ccc(Cl)c(Cl)c1C(c1c(F)cccc1F)=N[C@H]2C [Example 91]                    75
13  C[C@@H]1N=C(c2c(F)cccc2F)c2c(ccc(C(F)(F)F)c2Cl)-n2nc(C(=O)N3CC(C(F)F)C3)nc21 [Example 122]                    91
14  Cc1nc2n(n1)-c1ccc(C(F)(F)F)c(Cl)c1C(c1ncccc1F)=N[C@H]2C [Example 83]                   154
15  C[C@@H]1N=C(c2c(F)cccc2F)c2c(ccc(Cl)c2Cl)-n2nc(C(=O)N3CC(C#N)C3)nc21 [Example 41]                    67
